Species on record: Rattus norvegicus
Assay Procedure: DrugMatrix - Regimen: Daily Repeat
Type: toxicity, organism-based, Sprague-Dawley
Parameters: regimen Daily Repeat, gender Male, age 6-8 weeks
Condition: in vivo, iv, 0 mg/kg, 120 h, tissue Blood, dose level Control, time 5 day, vehicle 100 % SALINE
Starred links: 1 amine or outer side, 2 acyl side, 3 side chain; linkers in the order of their positions; H or OH if unused. Positions of bridges follow the written chain, without caps; N, C: chain ends. Non-standard residues stand in square brackets, D forms with d. Residues, ends and D or L forms follow the SMILES beside them. Chains are numbered I, II in the order given. Actinocin(9to1) = Cc1c2oc3c(C)ccc(C(=O)[*:1])c3nc-2c(C(=O)[*:2])c(N)c1=O; NMeV = CN[C@H](C(=O)O)C(C)C; Sar = CNCC(=O)O
Quantity Kind: MEAN CORPUSCULAR VOLUME (fL)
Number in fL, nothing else.

Compound: Cc1ccc(N(CC2=NCCN2)c2cccc(O)c2)cc1
Quantity Kind: MEAN CORPUSCULAR VOLUME
Readout Value: 62.13
//
Compound: CC[C@]1(O)C[C@H]2CN(CCc3c([nH]c4ccccc34)[C@@](C(=O)OC)(c3cc4c(cc3OC)N(C=O)[C@H]3[C@@](O)(C(=O)OC)[C@H](OC(C)=O)[C@]5(CC)C=CCN6CC[C@]43[C@@H]65)C2)C1
Quantity Kind: MEAN CORPUSCULAR VOLUME
Readout Value: 62.95

Could you tell me which MEAN CORPUSCULAR VOLUME is on file for Cc1c2oc3c(C)ccc(C(=O)N[C@@H]4C(=O)N[C@H](C(C)C)C(=O)N5CCC[C@H]5C(=O)N(C)CC(=O)N(C)[C@@H](C(C)C)C(=O)O[C@@H]4C)c3nc-2c(C(=O)N[C@@H]2C(=O)N[C@H](C(C)C)C(=O)N3CCC[C@H]3C(=O)N(C)CC(=O)N(C)[C@@H](C(C)C)C(=O)O[C@@H]2C)c(N)c1=O [DACTINOMYCIN] (I: T[dV]P[Sar][NMeV] / II: T[dV]P[Sar][NMeV]; ester I:1-I:C, II:1-II:C; linker I:N-II:N via Actinocin(9to1)) ?
62.42

Could you tell me which MEAN CORPUSCULAR VOLUME is on file for "COc1cc2c3cc1Oc1cc(ccc1O)C[C@@H]1c4c(cc(OC)c(O)c4Oc4ccc(cc4)C[C@@H]3N(C)CC2)CC[N+]1(C)C.[Cl-]" ?
62.17
